Reference source for all entries: patent US11873291B2

The entries below come with measured pIC50 values attached.
target: recombinant human cGAS (aa147-522) (Homo sapiens, UniProt Q8N884); construct: recombinant human cGAS (aa147-522); His6-SUMO (cleaved yes); made in house; host or cells: E. coli BL21/pLys; test: In vitro inhibition assay of cGAS activity (ATP consumption, KinaseGlo Max); assay type: biochemical; conditions: Table 3, read-out: cGAS Inhibition Results IC50
Sequence (Q8N884 147-522): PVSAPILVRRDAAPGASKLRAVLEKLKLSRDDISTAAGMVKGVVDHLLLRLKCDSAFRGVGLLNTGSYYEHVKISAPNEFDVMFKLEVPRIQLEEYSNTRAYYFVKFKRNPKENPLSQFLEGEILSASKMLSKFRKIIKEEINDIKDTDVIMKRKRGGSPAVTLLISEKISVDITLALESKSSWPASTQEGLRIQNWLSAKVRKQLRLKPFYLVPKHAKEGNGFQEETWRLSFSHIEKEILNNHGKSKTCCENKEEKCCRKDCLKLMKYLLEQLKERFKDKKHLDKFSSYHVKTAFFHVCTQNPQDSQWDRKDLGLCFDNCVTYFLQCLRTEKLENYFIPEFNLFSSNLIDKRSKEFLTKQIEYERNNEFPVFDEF
pIC50: −log10 of the molar value.

Which pIC50 value is on record for O=C(O)CCNC[C@@H]1CCCN1c1cc(-n2ccnc2)c2ccc(Cl)c(Cl)c2n1 ?
4.52 to 5.70

Which pIC50 value is on record for O=C(O)COC[C@@H]1[C@@H](O)CCN1c1cc(-n2ccnc2)c2ccc(Cl)c(Cl)c2n1 ?
> 5.70

Which pIC50 value is on record for O=C(O)CCOCCN(c1cc(-n2ccnc2)c2ccc(Cl)c(Cl)c2n1)C1CCCCC1 ?
> 5.70

Which pIC50 value is on record for COC(=O)[C@@H]1C[C@H](O)CN1c1cc(-n2ccnc2)c2ccc(Cl)c(Cl)c2n1 ?
4.52 to 5.70

Further cases:
Which pIC50 value is on record for O=C(O)C1CCN(C(=O)C[C@@H]2CCCN2c2cc(-n3ccnc3)c3ccc(Cl)c(Cl)c3n2)C1 (stereo partly drawn) ?
> 5.70

Which pIC50 value is on record for COc1c(Cl)ccc2c(-n3ccnc3)cc(N3CCC[C@H]3COCCC(=O)O)nc12 ?
> 5.70

Which pIC50 value is on record for O=C(O)CCOCC12CC(CN1c1cc(-n3ccnc3)c3ccc(Cl)c(Cl)c3n1)C2 ?
> 5.70

Which pIC50 value is on record for CN(CCNC(=O)C1CCCC1C(=O)O)c1cc(-n2ccnc2)c2ccc(Cl)c(Cl)c2n1 (stereo not drawn) ?
> 5.70

Which pIC50 value is on record for O=C(O)CCOCc1ccccc1-c1cc(-n2ccnc2)c2ccc(Cl)c(Cl)c2n1 ?
> 5.70

Which pIC50 value is on record for COC(=O)[C@@H]1C[C@H](F)CN1c1cc(-n2ccnc2)c2ccc(Cl)c(Cl)c2n1 ?
4.52 to 5.70

Which pIC50 value is on record for NC(=O)CNC(=O)[C@@H]1CCCN1c1cc(-n2ccnc2)c2ccc(Cl)c(Cl)c2n1 ?
4.52 to 5.70

Which pIC50 value is on record for CC(OCCC(=O)O)c1cccc(-c2cc(-n3ccnc3)c3ccc(Cl)c(Cl)c3n2)c1 (stereo not drawn) ?
> 5.70

Which pIC50 value is on record for O=C(O)COC[C@@H]1CN(c2cc(-n3ccnc3)c3ccc(Cl)c(Cl)c3n2)CCO1 ?
> 5.70

Which pIC50 value is on record for COC(=O)c1cccn1-c1cc(-n2ccnc2)c2ccc(Cl)c(Cl)c2n1 ?
4.52 to 5.70

* * *

molecular target: recombinant human cGAS (aa147-522) (Homo sapiens, UniProt Q8N884); construct: recombinant human cGAS (aa147-522); His6-SUMO (cleaved yes); made in house; host or cells: E. coli BL21/pLys; test: In vitro inhibition assay of cGAS activity (ATP consumption, KinaseGlo Max); assay type: biochemical; conditions: Table 2, read-out: cGAS Inhibition Results IC50
pIC50: −log10 of the molar value.
The entries below come with measured pIC50 values attached.

# example entries with known answers
Which pIC50 value is on record for Clc1ccc2c(-n3ccnc3)cc(OCc3ccccc3)nc2c1 ?
4.52 to 5.70

Which pIC50 value is on record for c1ccc2c(-n3cccn3)ccnc2c1 ?
< 4.52

Kindly consider the entry below.
Which pIC50 value is on record for O=C(O)C1CC(O)CN(c2cc(-n3ccnc3)c3ccc(Cl)cc3n2)C1 (stereo not drawn) ?
< 4.52
